# EC50 per entry
SUBJECT_OF_TEST: COX-1 (Ovis aries, UniProt P05979)
Sequence (P05979 25-600): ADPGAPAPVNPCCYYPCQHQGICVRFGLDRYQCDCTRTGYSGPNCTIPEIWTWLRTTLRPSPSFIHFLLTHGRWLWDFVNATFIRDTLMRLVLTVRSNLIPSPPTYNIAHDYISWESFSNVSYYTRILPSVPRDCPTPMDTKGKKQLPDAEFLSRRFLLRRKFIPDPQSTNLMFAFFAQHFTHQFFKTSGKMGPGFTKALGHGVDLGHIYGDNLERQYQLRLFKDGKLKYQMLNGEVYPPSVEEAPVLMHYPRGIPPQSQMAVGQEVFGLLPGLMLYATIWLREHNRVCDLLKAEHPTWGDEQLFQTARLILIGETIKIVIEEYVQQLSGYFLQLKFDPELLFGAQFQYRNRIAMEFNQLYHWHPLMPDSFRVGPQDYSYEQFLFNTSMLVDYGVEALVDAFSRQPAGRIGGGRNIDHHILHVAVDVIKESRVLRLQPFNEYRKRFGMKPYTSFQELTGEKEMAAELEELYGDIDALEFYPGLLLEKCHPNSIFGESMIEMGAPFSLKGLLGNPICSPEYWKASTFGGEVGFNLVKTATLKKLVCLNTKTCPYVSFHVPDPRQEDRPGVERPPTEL
MEASUREMENT_NOTES: COX (ovine) colorimetric inhibitor screening assay, COX-1
STUDY_CONDITIONS: pure compounds; acetaminophen positive control
Give just the number in µM; leave the unit off.

Solved entries:
CC1(C)C(O)C(=O)CC2(C)C1CCC1(C)C2CC=C2C3C(C(=O)O)(CCC(C(=O)O)C3(C)O)CCC21C (stereo not drawn) [Compound 3, rosaroxine C]; 40.3
O=C(O)c1cc(O)c(O)c(O)c1 [Compound 21, gallic acid]; 40
O=c1c(O)c(-c2ccc(O)c(O)c2)oc2cc(O)cc(O)c12 [Compound 16, quercetin]; 33.1
Oc1cc(O)c2c(c1)OC(c1ccc(O)c(O)c1)C(O)C2 (stereo not drawn) [Compound 15, catechin]; 29

Alright, here's another compound for you.
Qu. Supply recorded EC50 for C[C@@H]1CC[C@]2(C(=O)O)CC[C@]3(C)C(=CC[C@@H]4[C@@]5(C)CC(=O)[C@H](O)C(C)(C)[C@@H]5CC[C@]43C)[C@@H]2[C@]1(C)O [Compound 5, 2-oxo-pomolic acid] here.
Ans. 28.2

* * *

SUBJECT_OF_TEST: COX-2 (Ovis aries)
Sequence (P79208 17-603): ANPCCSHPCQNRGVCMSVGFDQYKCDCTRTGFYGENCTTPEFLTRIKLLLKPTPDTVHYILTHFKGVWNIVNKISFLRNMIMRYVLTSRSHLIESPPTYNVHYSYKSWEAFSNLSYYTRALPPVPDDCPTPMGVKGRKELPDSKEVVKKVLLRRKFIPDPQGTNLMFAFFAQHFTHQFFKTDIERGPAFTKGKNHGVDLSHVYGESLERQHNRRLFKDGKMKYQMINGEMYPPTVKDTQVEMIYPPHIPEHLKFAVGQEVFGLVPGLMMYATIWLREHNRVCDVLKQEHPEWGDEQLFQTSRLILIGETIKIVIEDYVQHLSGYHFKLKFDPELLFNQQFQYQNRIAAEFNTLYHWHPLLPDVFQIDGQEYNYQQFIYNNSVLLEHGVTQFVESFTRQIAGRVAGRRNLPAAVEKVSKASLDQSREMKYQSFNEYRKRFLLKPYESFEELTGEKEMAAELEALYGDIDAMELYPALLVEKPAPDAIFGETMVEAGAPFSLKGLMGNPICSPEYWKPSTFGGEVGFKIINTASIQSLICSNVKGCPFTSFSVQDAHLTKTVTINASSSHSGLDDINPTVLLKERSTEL
MEASUREMENT_NOTES: COX (ovine) colorimetric inhibitor screening assay, COX-2
STUDY_CONDITIONS: pure compounds; acetaminophen positive control
MEASUREMENT_KIND: EC50
Respond with the figure and its unit, in that order.

Solved entries:
CC1(C)C(O)C(=O)CC2(C)C1CCC1(C)C2CC=C2C3C(C(=O)O)(CCC(C(=O)O)C3(C)O)CCC21C (stereo not drawn) [Compound 3, rosaroxine C]; 37.4 µM
C[C@@H]1CC[C@]2(C(=O)O)CC[C@]3(C)C(=CC[C@@H]4[C@@]5(C)CC(=O)[C@H](O)C(C)(C)[C@@H]5CC[C@]43C)[C@@H]2[C@]1(C)O [Compound 5, 2-oxo-pomolic acid]; 16.6 µM
Oc1cc(O)c2c(c1)OC(c1ccc(O)c(O)c1)C(O)C2 (stereo not drawn) [Compound 15, catechin]; 53.3 µM
CC(=O)Nc1ccc(O)cc1 [Acetaminphen, acetaminophen, reference compound]; 45 µM
O=c1c(O)c(-c2ccc(O)c(O)c2)oc2cc(O)cc(O)c12 [Compound 16, quercetin]; 18.8 µM

Qu. Supply recorded EC50 for O=C(O)c1cc(O)c(O)c(O)c1 [Compound 21, gallic acid] here.
Ans. 26.3 µM

* * *

MEASUREMENT_NOTES: DPPH radical scavenging capacity assay
STUDY_CONDITIONS: pure compounds; 30 min, 517 nm; ascorbic acid positive control
MEASUREMENT_KIND: EC50
Respond with the figure and its unit, in that order.

Qu. Supply recorded EC50 for "O=C(O)c1cc(O)c(O)c(O)c1" here.
Ans. 10 µM

Qu. Supply recorded EC50 for "O=c1c(O)c(-c2ccc(O)c(O)c2)oc2cc(O)cc(O)c12" here.
Ans. 13.1 µM

Qu. Supply recorded EC50 for Oc1cc(O)c2c(c1)OC(c1ccc(O)c(O)c1)C(O)C2 (centres unmarked) here.
Ans. 13.4 µM

Qu. Supply recorded EC50 for O=C1O[C@H]([C@@H](O)CO)C(O)=C1O [Ascorbic acid, ascorbic acid, reference compound] here.
Ans. 31.3 µM

Qu. Supply recorded EC50 for "O=C(O)c1ccc(O)c(O)c1" here.
Ans. 15.2 µM
